Quick reference for Ki among some compounds
assay_system: Protein kinase C alpha type (Homo sapiens, UniProt P17252)
assay_metric: Ki (µM)

{"input_smiles": "CC(C)C[C@H]1CN(c2ccc(OC(F)F)c(C(=O)c3cccnc3N)n2)CCN1", "test_result": 0.459}
{"input_smiles": "CC(C)C[C@H]1CN(c2ccc(C(F)(F)F)c(C(=O)c3cccnc3N)n2)CCN1", "test_result": 0.076}

---

assay_system: Tyrosine-protein kinase ZAP-70 (Homo sapiens)
Sequence (P43403 whole entry): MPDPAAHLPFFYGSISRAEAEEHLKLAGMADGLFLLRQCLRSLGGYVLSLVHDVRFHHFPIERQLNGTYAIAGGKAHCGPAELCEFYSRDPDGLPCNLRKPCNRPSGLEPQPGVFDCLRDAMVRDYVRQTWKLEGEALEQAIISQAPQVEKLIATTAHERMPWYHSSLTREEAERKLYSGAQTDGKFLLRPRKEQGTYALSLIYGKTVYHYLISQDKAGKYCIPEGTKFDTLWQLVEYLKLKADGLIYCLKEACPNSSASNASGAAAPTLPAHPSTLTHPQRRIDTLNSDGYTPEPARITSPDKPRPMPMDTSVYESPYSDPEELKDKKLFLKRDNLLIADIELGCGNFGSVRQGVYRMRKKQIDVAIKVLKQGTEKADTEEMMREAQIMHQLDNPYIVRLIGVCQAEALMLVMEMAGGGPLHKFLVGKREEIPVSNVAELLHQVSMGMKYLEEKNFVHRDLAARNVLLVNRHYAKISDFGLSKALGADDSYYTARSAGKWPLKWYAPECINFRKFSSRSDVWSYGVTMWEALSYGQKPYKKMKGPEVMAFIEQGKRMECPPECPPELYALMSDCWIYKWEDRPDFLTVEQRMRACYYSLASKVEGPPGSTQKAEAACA
assay_metric: IC50

{"input_smiles": "CC(C)C[C@H]1CN(c2ccc(C(F)(F)F)c(C(=O)c3cccnc3N)n2)CCN1", "test_result": "> 2 µM"}
